test system: UACC-257; assay: NCI tumour cell line growth inhibition, 48 h
Activity calls are given as the source filed them. Cut-off read from the data, not from the text of the source: active = GI50 up to about 1.1 µM and inactive = higher.
Each entry below lists one item and its recorded GI50 value.

Compound: OC(c1ccco1)C(F)(F)c1nc2ccccc2o1 (stereo not given)
GI50: > 100 µM (inactive)
//
Compound: CC1=C(C(=O)NNS(=O)(=O)c2ccc(C)cc2)CC(C(=O)NNS(=O)(=O)c2ccc(C)cc2)=C(C)N1
GI50: > 100 µM (inactive)
//
Compound: ICC1CCCO1 (stereo not given)
GI50: > 100 µM (inactive)

Entry under test: CC(C)=CCC12Cc3ccc(O)cc3C(C(C)CN1)C2C (stereo not given) . Its GI50 was 27.3 µM (inactive)

Entry under test: FC(F)(F)C1=NC(=NNc2nnc(-c3ccccc3)c(-c3ccccc3)n2)N=C(C(F)(F)F)C1 . Its GI50 was 23.9 µM (inactive)

Entry under test: CCCCCCCCCCC[N+]1(Cc2ccccc2)CC2CCN(Cc3ccccc3)CC2C1 (stereo not given) . Its GI50 was 0.288 µM (active)

Entry under test: C=CCNC1=C2C[C@@H](C)C[C@@H](OC)C(OC(=O)CCCN(C)C)[C@H](C)/C=C(\C)[C@@H](OC(N)=O)[C@H](OC)/C=C\C=C(/C)C(=O)NC(=CC1=O)C2=O (stereo not given in full) . Its GI50 was 12.9 µM (inactive)

Entry under test: O=C1[C@H]2C(c3ccccc3)=NN(C(=O)c3ccccc3)[C@H]2C(=O)N1c1ccccc1 . Its GI50 was > 100 µM (inactive)

---

test system: HCT-116; test: NCI tumour cell line growth inhibition, 48 h
Activity calls are given as the source filed them. Rule as the data show it: active = GI50 up to about 1.1 µM and inactive = higher.
Pick one and only one: T = active, F = inactive

Compound: CCSC1(SCC)CC(Cc2ccc(OC)cc2)N(/C=N/C(C)(C)C)C1 (stereo not given)
Label Class: F
//
Compound: O=CN/C=C\c1cc(O)ccc1O
Label Class: F
//
Compound: O=C(O)c1ccc2[nH]c(=O)oc2c1
Label Class: F

Asked: Hey, what did the test say about Cc1cc(Cl)cc2c1NC(=O)C2=O.O=C(c1ccccc1)C(F)(F)F ?
Given back: F

Asked: Hey, what did the test say about CCSc1nc2n(c(=S)n1)CCN2C ?
Given back: F

Asked: Hey, what did the test say about COc1ccc2oc(=O)c(-c3nc4ccccc4o3)cc2c1 ?
Given back: F

Asked: Hey, what did the test say about O=C1CC(C2(O)C(=O)Nc3ccc([N+](=O)[O-])cc32)c2ccccc21 (stereo not given) ?
Given back: F

Asked: Hey, what did the test say about O=C1C2=C(C3=NCCc4c[nH]c1c43)C1(C=C(Br)C(O)C(Br)=C1)CCN2 (stereo not given) ?
Given back: T

Asked: Hey, what did the test say about C=CCNC1=C2C[C@@H](C)C[C@@H](OC)C(OC(=O)CCCN(C)C)[C@H](C)/C=C(\C)[C@@H](OC(N)=O)[C@H](OC)/C=C\C=C(/C)C(=O)NC(=CC1=O)C2=O (stereo not given in full) ?
Given back: F

Asked: Hey, what did the test say about Cc1nc2c(C)ccc([N+](=O)[O-])c2c(NCCCN(C)C)c1C ?
Given back: F

---

system: OVCAR-8; experiment: NCI tumour cell line growth inhibition, 48 h
Calls of active or inactive are those of the source. Cut-off read from the data, not from the text of the source: active = GI50 up to about 1.1 µM and inactive = higher.
Each entry below lists one item and its recorded GI50 value.

Example entries begin here.
Molecule: Fc1sc2c(c1F)C1CCC2C1 (centres undefined)
GI50: > 100 µM (inactive)
//
Molecule: Cc1c(C(=O)O)n2c(C)nnc2c2ccccc12
GI50: > 100 µM (inactive)
//
Molecule: CCCCC1C(=O)N(c2ccc(S(=O)(=O)Nc3ccccn3)cc2)N(c2ccc(O)c(C(=O)O)c2)C1=O (centres undefined)
GI50: > 100 µM (inactive)
//
Molecule: O=C(CC(C(=O)c1ccsc1)c1ccccc1)c1cccs1 (centres undefined)
GI50: 58.1 µM (inactive)
//
Molecule: CN1C(=O)c2c(c3c4ccccc4n(C)c3c3c2c2ccccc2n3C)C1=O
GI50: > 100 µM (inactive)
//
Molecule: Cc1c(N)nc(C(CC(N)=O)NCC(N)C(N)=O)nc1C(=O)NC(C(=O)NC(C)C(O)C(C)C(=O)NC(C(=O)NCCc1nc(-c2nc(C(=O)NCCCNC(C)c3ccccc3)cs2)cs1)C(C)O)C(OC1OC(CO)C(O)C(O)C1OC1OC(CO)C(O)C(OC(N)=O)C1O)c1c[nH]cn1 (centres undefined)
GI50: 5.11 µM (inactive)
//
Molecule: COC(=O)[C@@H]1C(=O)O[C@@H](c2ccc3c(c2)OCO3)[C@@H]1C(=O)OC.COC(=O)[C@H]1C(=O)O[C@@H](c2ccc3c(c2)OCO3)[C@@H]1C(=O)OC
GI50: > 100 µM (inactive)
//
Molecule: CCOC(=O)/C=C(/C(=O)OCC)n1cc(C)c(=O)n(Cc2cnnn2COCCOC(C)=O)c1=O
GI50: 14.7 µM (inactive)

Entry under test: COC(=O)NCCc1n[nH]c2c1C(=O)C=C(N1CCOCC1)C2=O . Its GI50 was > 100 µM (inactive)

Entry under test: N#CC(C#N)=Cc1ccc(CP(=O)(O)O)cc1 . Its GI50 was > 100 µM (inactive)

Entry under test: CC(C)(C)c1cc(C(C)(C)C)c2sc(=O)oc2c1O . Its GI50 was 16.3 µM (inactive)

Entry under test: CC12CCC(C/C1=N\NC(N)=O)C2(C)C (centres undefined) . Its GI50 was > 100 µM (inactive)

Entry under test: CC1=NN(c2cc(Cl)c(S(=O)(=O)O)cc2Cl)C2(C1)C(Cl)C(=O)N2c1nc2ccccc2s1 (centres undefined) . Its GI50 was 86.9 µM (inactive)

Entry under test: Cc1ccc(C(=O)Nc2ccc(CP(=O)(O)O)cc2)cc1NC(=O)c1cccc(NC(=O)Nc2cccc(C(=O)Nc3cc(C(=O)Nc4ccc(CP(=O)(O)O)cc4)ccc3C)c2)c1 . Its GI50 was > 100 µM (inactive)

Entry under test: O=C(O)C1OC1C(=O)O (centres undefined) . Its GI50 was > 100 µM (inactive)

Entry under test: CC(=O)OC1CCn2c1nc1cc([N+](=O)[O-])c(C)cc12 (centres undefined) . Its GI50 was > 100 µM (inactive)

Entry under test: COc1cc(S(=O)(=O)Nc2ccc(-c3csc(N4C(=O)C(Cl)C4c4cccs4)n3)cc2)ccc1Cl (centres undefined) . Its GI50 was 70.6 µM (inactive)

Entry under test: Clc1cccc(-c2nc3cccc4c3n2Cc2ncccc2-4)c1 . Its GI50 was 92.3 µM (inactive)

Entry under test: CN(C)C1(c2cc3ccccc3s2)CCCCC1 . Its GI50 was 51.3 µM (inactive)
